EXPERIMENT NOTES: TLR3 IRF3 reporter activation blockers – cell-based, poly I:C stimulus, luciferase, 10K MLSCN set, primary screen (AID 602277)
EXPERIMENTAL CONDITIONS: HEK293-TLR3 RL24 IRF3 luciferase reporter, at 10 µM, stronger effect = higher value
TEST READOUT: inhibition (%)
Answer format: numeric, % implied, no suffix.

Examples with their reported inhibition follow.
{"MOLECULE": "CC(=O)N(CCN(C(C)=O)c1ccccc1)c1ccccc1", "TEST READOUT": "inhibition", "ENDPOINT VALUE": 17.2}
{"MOLECULE": "COc1ccc(OC)c(NC(=O)c2nnn(Cc3ccc(Br)cc3F)c2N)c1", "TEST READOUT": "inhibition", "ENDPOINT VALUE": 5.74}

### Prompt Input `O=C(c1ccc(-c2ccccc2)cc1)N1CCC(C(=O)N2CCCC2)CC1` , output reported inhibition.
### Response 8.25

### Prompt Input Cc1ccc(N(C(C)C(=O)Nc2ccc(S(=O)(=O)N3CCOCC3)cc2)S(C)(=O)=O)cc1 (centres undefined) , output reported inhibition.
### Response 10.8

### Prompt Input `CCn1c(SCC(=O)Nc2cc(NC(C)=O)ccc2OC)nnc1-c1ccccn1` , output reported inhibition.
### Response 8.37

----------
EXPERIMENT NOTES: reduction of polyQ htt aggregates in cells – imaging, exon1htt(103Q)mCFP cells, high-content imaging, primary screen (AID 483);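 further: compound exposure lasted 3 days before fixation; percent of the per-plate median nuclei count of sample wells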
EXPERIMENTAL CONDITIONS: exon1htt(103Q)mCFP cell line, aggregate imaging, at 2 µM; measured here: cell count, toxicity
TEST READOUT: nuclei count

### Prompt Input `O=C(NCC12CC3CC(C1)CC(CNC(=O)N1CCCC1)(C3)C2)N1CCCC1` , output reported nuclei count.
### Response 92.2%

----------
EXPERIMENT NOTES: blockers of RIG-like receptor reporter activation – cell-based, Sendai virus stimulus, luciferase, 10K MLSCN set, TLR/RLR signaling modifier project, primary screen (AID 602276);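 further: firefly luciferase from ISG56 promoter only with Renilla not read in this screen; 0% = Sendai virus plus DMSO and 100% = medium plus DMSO without virus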
EXPERIMENTAL CONDITIONS: HEK293 RL24 IRF3 luciferase reporter, at 10 µM, stronger effect = higher value
Documented inhibition across a set of molecules
Answer format: numeric, % implied, no suffix.

Examples with their reported inhibition follow.
{"MOLECULE": "COC(=O)c1ccccc1NC(=O)C1CC(=O)N(c2ccccc2)C1 (stereo unspecified)", "inhibition / %": 10.2}
{"MOLECULE": "CC(C)C(=O)Nc1ccc2c(c1)nc1n2CCSC1", "inhibition / %": -12.7}

### Prompt Input `Cc1ccc(CCNC(=O)C2CCN(S(=O)(=O)c3ccc4c(c3)CCC(=O)N4)CC2)cc1` , output reported inhibition.
### Response -8.22

### Prompt Input `CCOC(=O)CSc1nc2cccnc2n1-c1ccc(F)cc1` , output reported inhibition.
### Response -4.88

----------
EXPERIMENT NOTES: blockers of RIG-like receptor reporter activation – cell-based, Sendai virus stimulus, luciferase, 10K MLSCN set, TLR/RLR signaling modifier project, primary screen (AID 602276);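 further: firefly luciferase from ISG56 promoter only with Renilla not read in this screen; 0% = Sendai virus plus DMSO and 100% = medium plus DMSO without virus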
EXPERIMENTAL CONDITIONS: HEK293 RL24 IRF3 luciferase reporter, at 10 µM, stronger effect = higher value
Documented inhibition across a set of molecules
Answer format: numeric, % implied, no suffix.

Examples with their reported inhibition follow.
{"MOLECULE": "COc1cccc(N2CCN(Cc3cccnc3)CC2)c1", "ENDPOINT VALUE": 6.56}
{"MOLECULE": "CCCCCc1c(O)nc(SCC(=O)NCC2CCCO2)[nH]c1=O (stereo unspecified)", "ENDPOINT VALUE": 3.21}
{"MOLECULE": "CCN1CCN(S(=O)(=O)Cc2ccccc2)CC1", "ENDPOINT VALUE": -13.3}

### Prompt Input `COCCCNC(=O)CCn1c(=O)c2ccccc2n(CC(=O)Nc2ccc(C)cc2C)c1=O` , output reported inhibition.
### Response 8.73

### Prompt Input CCN(CC)CCCN1C(=O)C(O)=C(C(=O)c2ccco2)C1c1ccc(C)o1 (stereo unspecified) , output reported inhibition.
### Response 8.72

### Prompt Input Fc1ccc(C(c2nnnn2Cc2ccco2)N2CCN(C3CCCCC3)CC2)cc1 (stereo unspecified) , output reported inhibition.
### Response -10.1

### Prompt Input `O=C(CCc1nc2ccccc2s1)OCC(=O)N1CCN(C(=O)c2ccco2)CC1` , output reported inhibition.
### Response 14.9

### Prompt Input `C/C(Nc1cccc(F)c1)=C(/C#N)C(N)=O` , output reported inhibition.
### Response -10.6

### Prompt Input `Cn1c(=O)[nH]c(=O)c2[nH]c(NCCCN3CCOCC3)nc21` , output reported inhibition.
### Response 9.97

### Prompt Input CC(=O)OC(C(=O)NC1CCCCC1)c1ccncc1 (stereo unspecified) , output reported inhibition.
### Response 8.21

### Prompt Input `CCn1c(=O)c2cc(S(=O)(=O)NCc3ccccc3)ccc2n(CC)c1=O` , output reported inhibition.
### Response 11.6
